- Tested on: DQ3.1
- experimentalSetup: read-out: PADRE Class II Binding Affinities; Table VIII A
Non-standard residues stand in square brackets, D forms with d. Residues, ends and D or L forms follow the SMILES beside them. Cha = N[C@@H](CC1CCCCC1)C(=O)O
readoutKind: pIC50
Give bare numbers, as −log10 of the molar value.

Illustrative cases are given below, each with its answer.
CC(C)C[C@H](NC(=O)[C@@H](NC(=O)[C@H](C)NC(=O)[C@H](C)NC(=O)[C@H](C)NC(=O)[C@H](C)NC(=O)[C@H](CC1CCCCC1)NC(=O)[C@H](C)NC(=O)[C@@H](C)N)[C@@H](C)O)C(=O)N[C@@H](CCCCN)C(=O)N[C@@H](C)C(=O)N[C@@H](CCC(N)=O)C(=O)N[C@H](C)C(N)=O [Peptide 906.48] (H-[dA]A[Cha]AAAATLKAQ[dA]-NH2; N-terminus and C-terminus assumed)	7.74
CC(C)C[C@H](NC(=O)[C@@H](NC(=O)[C@H](CCC(=O)O)NC(=O)[C@H](C)NC(=O)[C@H](C)NC(=O)[C@H](C)NC(=O)[C@H](CC1CCCCC1)NC(=O)[C@H](C)NC(=O)[C@@H](C)N)[C@@H](C)O)C(=O)N[C@@H](CCCCN)C(=O)N[C@@H](C)C(=O)N[C@@H](C)C(=O)N[C@H](C)C(N)=O [Peptide 906.24]	7.33

Fill in reported pIC50 for this entry: C[C@H](NC(=O)[C@H](C)NC(=O)[C@H](C)NC(=O)[C@H](CC1CCCCC1)NC(=O)[C@H](C)NC(=O)[C@@H](C)N)C(=O)N[C@@H](C)C(=O)N[C@H](C(=O)N[C@@H](Cc1ccccc1)C(=O)N[C@@H](CCCCN)C(=O)N[C@@H](C)C(=O)N[C@@H](C)C(=O)N[C@H](C)C(N)=O)[C@@H](C)O [Peptide 906.33]
7.87
